target: Calpain-1 catalytic subunit (Sus scrofa, UniProt P35750); assay: The compound was evaluated for inhibition of Calpain 1 from porcine erythrocytes
Sequence (P35750 whole entry): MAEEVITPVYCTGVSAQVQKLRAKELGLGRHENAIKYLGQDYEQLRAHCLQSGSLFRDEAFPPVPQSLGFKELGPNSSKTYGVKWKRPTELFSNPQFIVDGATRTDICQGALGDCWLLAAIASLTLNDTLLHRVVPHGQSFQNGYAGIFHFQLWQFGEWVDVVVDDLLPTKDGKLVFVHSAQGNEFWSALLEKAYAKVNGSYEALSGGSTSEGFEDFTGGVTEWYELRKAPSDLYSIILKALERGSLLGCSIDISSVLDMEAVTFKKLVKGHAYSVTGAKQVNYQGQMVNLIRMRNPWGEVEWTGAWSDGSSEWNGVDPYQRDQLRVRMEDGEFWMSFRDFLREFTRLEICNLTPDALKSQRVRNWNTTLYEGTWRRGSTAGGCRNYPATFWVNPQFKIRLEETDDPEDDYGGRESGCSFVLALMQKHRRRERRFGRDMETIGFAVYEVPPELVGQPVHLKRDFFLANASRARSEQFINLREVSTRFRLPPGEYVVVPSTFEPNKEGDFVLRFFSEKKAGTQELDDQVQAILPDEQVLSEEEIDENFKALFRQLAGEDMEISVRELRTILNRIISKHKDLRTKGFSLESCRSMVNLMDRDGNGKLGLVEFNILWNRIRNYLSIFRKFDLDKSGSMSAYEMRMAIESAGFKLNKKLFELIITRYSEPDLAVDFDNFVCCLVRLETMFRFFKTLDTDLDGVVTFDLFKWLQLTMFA
pKi: −log10 of the molar value.
Use 5 as the dividing line for pKi, with the line itself on the fulfilled side and lower values as not fulfilled.

CC(C)[C@H]1C[C@]1(NC(=O)OCc1ccccc1)C(=O)N[C@@H](Cc1ccccc1)C(=O)C(=O)NCCc1ccccc1	fulfilled
CC(C)[C@@H]1C[C@@]1(NC(=O)OCc1ccccc1)C(=O)N[C@@H](Cc1ccccc1)C(=O)C(=O)NCCc1ccccc1	fulfilled
CC(C)C[C@H](NC(=O)OCc1ccccc1)C(=O)N[C@@H](Cc1ccccc1)C(=O)C(=O)NCCc1ccccc1	fulfilled

For this compound, is measured pKi 5 or higher? CC(C)[C@@H]1C[C@]1(NC(=O)OCc1ccccc1)C(=O)N[C@@H](Cc1ccccc1)C(=O)C(=O)NCCc1ccccc1 not fulfilled

---

experiment: Selectivity ratio of Ki values for cathepsin B inhibition by those for calpain I inhibition
measured.metric: Selectivity ratio

A selection of reference data follows.
CC(C)[C@@H]1C[C@]1(NC(=O)OCc1ccccc1)C(=O)N[C@@H](Cc1ccccc1)C(=O)C(=O)NCCc1ccccc1	0.1
CC(C)C[C@H](NC(=O)OCc1ccccc1)C(=O)N[C@@H](Cc1ccccc1)C(=O)C(=O)NCCc1ccccc1	4
CC(C)[C@H]1C[C@]1(NC(=O)OCc1ccccc1)C(=O)N[C@@H](Cc1ccccc1)C(=O)C(=O)NCCc1ccccc1	0.2
CC(C)[C@@H]1C[C@@]1(NC(=O)OCc1ccccc1)C(=O)N[C@@H](Cc1ccccc1)C(=O)C(=O)NCCc1ccccc1	9

Now consider a different molecule.
Quick note, Selectivity ratio for CC(C)[C@H]1C[C@@]1(NC(=O)OCc1ccccc1)C(=O)N[C@@H](Cc1ccccc1)C(=O)C(=O)NCCc1ccccc1 landed at 0.5
